assay_target: Adrenergic receptor alpha-2 (Rattus norvegicus, UniProt P22086+P19328+P22909)
assay_summary: In vitro binding affinity against alpha-2 adrenergic receptor in rat
outcome_measure: log10 of Ki (log10 of the value in nM)
Hello, just confirming the data are log10 of Ki with units of nM.

[
  {
    "compound": "CCc1sc(C(C)C)nc1Cc1c[nH]cn1",
    "assay_target": "Adrenergic receptor alpha-2 (Rattus norvegicus, UniProt P22086+P19328+P22909)",
    "log10 of Ki": 1.45
  }
]

log10 of Ki reading for `CCc1nc(Cc2c[nH]cn2)sc1C` : 1.26

log10 of Ki reading for `CCc1sc(C(F)(F)F)nc1Cc1c[nH]cn1` : 2.51

log10 of Ki reading for Cc1cccc(C(C)c2c[nH]cn2)c1C (single isomer, unassigned) [DEXMEDETOMIDINE] : -1.82

log10 of Ki reading for `Cc1nc(Cc2c[nH]cn2)c(C)s1` : 1.58

log10 of Ki reading for `CCc1nc(Cc2c[nH]cn2)c(CC)s1` : 1.23

log10 of Ki reading for `CCc1sc(-c2ccccc2)nc1Cc1c[nH]cn1` : 1.11

log10 of Ki reading for Cc1nc(C)c(C(c2ccccc2)c2c[nH]cn2)s1 (stereo not drawn) : 2.43

log10 of Ki reading for Cc1nc(C)c(C(C)c2c[nH]cn2)s1 (stereo not drawn) : 1.78

log10 of Ki reading for `CC(C)c1nc(Cc2c[nH]cn2)c(C(C)C)s1` : 2.45

log10 of Ki reading for `Cc1nc(Cc2c[nH]cn2)sc1C` : 1.04
